B1: Gamma-crystallin S, residues 96 to 176; numbered along this chain, P22914 (parent)
chain: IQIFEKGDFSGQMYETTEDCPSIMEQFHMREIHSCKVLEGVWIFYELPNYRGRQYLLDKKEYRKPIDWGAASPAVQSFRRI

Variants of: B1
Assay: abundance fitness (aPCA) (normalised: wild type 0, dead -1); higher = more abundant; growth selection in yeast, the domain comes from the species named
Conditions: Homo sapiens
Recorded abundance fitness for the following variants
Give a plain numeric answer without units written out.

{"mutation": "Y45T", "assay readout": "abundance fitness", "observed value": -0.304}
{"mutation": "Q54E", "assay readout": "abundance fitness", "observed value": -0.067}
{"mutation": "D58P", "assay readout": "abundance fitness", "observed value": -0.342}
{"mutation": "Q2F", "assay readout": "abundance fitness", "observed value": 0.17}
{"mutation": "V75T", "assay readout": "abundance fitness", "observed value": -0.211}

Q: Item E39V has what recorded abundance fitness?
Ans: 0.061

Q: Cool, now Y50A
Ans: -0.576
